Source: ChEMBL document CHEMBL1201862

Tested on: SW-620
Test: NCI tumour cell line growth inhibition, 48 h
Calls of active or inactive are those of the source. Rule as the data show it: active = GI50 up to about 1.1 µM and inactive = higher.
READOUT KIND: GI50

Past entries and their recorded results:
COMPOUND	GI50
Cn1c2c(c3ccccc31)CCN(CCCN1CCN(c3cccc(Cl)c3)CC1)C2=O	28 µM (inactive)
COc1ccc2[nH]c3c(O)nncc3c2c1	> 100 µM (inactive)
O=C(C1=CCC2(CC1)OCCO2)N(Cc1ccccc1)c1ccccc1I	29.7 µM (inactive)
[N-]=[N+]=NC(c1cn(C2CC(O)C(CO)O2)c(=O)[nH]c1=O)C(Cl)Br (stereo unspecified)	> 100 µM (inactive)
CNc1ccccc1-c1nc2ccccc2c(=O)o1	> 100 µM (inactive)
N=C(N)c1ccc(/N=N\c2c(O)c(C(=O)Nc3ccccc3)cc3ccccc23)cc1	15.6 µM (inactive)
O=C1CCN(CCC(F)(F)C(F)(F)C(F)(F)C(F)(F)F)C(=S)N1	> 100 µM (inactive)
CN(C)c1ccc(/C=C/C(=O)c2ccc(O)cc2)cc1	3.57 µM (inactive)
c1ccc2c(CNCCCCCCNCc3cccc4ccccc34)cccc2c1	4.06 µM (inactive)
O=[N+]([O-])c1ccc(C2=Nc3ccccc3SC(c3ccccc3)C2)cc1 (stereo unspecified)	14.5 µM (inactive)

Now take the following compound into account.
### Prompt Field request: GI50 | item: O=C1NC(=S)N/C1=C/c1c(-c2ccccc2)[nH]c2ccccc12
### Response 17.1 µM (inactive)

----------
Tested on: HT-29
Assay: NCI tumour cell line growth inhibition, 48 h
Active and inactive are the calls of the source. No stated cut-off is given here; in the data, active = GI50 up to about 1.1 µM and inactive = higher.
READOUT KIND: GI50

COMPOUND	RESULT
CCOC(=O)/C=C1/Oc2ccccc2C1(C)O (stereo not drawn)	> 100 µM (inactive)
N#CC(C#N)=C1C(=O)NC(N)=C1C#N	> 100 µM (inactive)
CN(CCNC(=O)c1cc(-c2ccccc2)nc2ccccc12)CCNC(=O)c1cc(-c2ccccc2)nc2ccccc12	2.14 µM (inactive)
Cc1c2cccc-2ccc2c3ccccc3n(C(=O)c3ccc(Cl)cc3)c12	> 76.7 µM (inactive)
C[n+]1cccc2ccc3cccnc3c21	28.2 µM (inactive)

### Prompt Suppose we examine the compound CC(C)C1(C)N=C(C(F)(F)F)c2cc(C(=O)C(F)(F)F)c3ccccc3c2N1 (stereo not drawn) ; what GI50 value has been reported?
### Response 3.44 µM (inactive)

### Prompt Thanks! And COC(=O)c1cc(C)c(C)c2c1NC(=O)CNC2=O ?
### Response > 100 µM (inactive)

### Prompt CCCCCCCCCCCCCCCC(=O)Nc1ccn(C2CC(OP(=O)(O)OCC3OC(n4cc(F)c(=O)[nH]c4=O)CC3OC(C)=O)C(CO)O2)c(=O)n1 (stereo not drawn) ?
### Response 7.62 µM (inactive)

### Prompt Another compound: COc1ccc(/C(Cl)=C(\C=O)c2ccc(OC)cc2)cc1
### Response > 100 µM (inactive)

### Prompt Follow-up entry: COc1ccc(/C=C2\CC3C4CC=C5C[C@@H](O)CC[C@]5(C)C4CC[C@]3(C)\C2=N\O)cc1OC (stereo partly drawn)
### Response 9.02 µM (inactive)

### Prompt Moving on to C1CSCCCSCCCSCCCSCCCSC1
### Response 22.9 µM (inactive)

### Prompt Entry COC(=O)C1(Cc2ccccc2)Cc2cc3c(cc2C1)CCC3 please
### Response 10.5 µM (inactive)
